Assay: Quantitative High-Throughput drug screen in 47 multiple myeloma cell lines against the NCATS MIPE library collection: KMS27_JCRB cell viability assay (AID 1918970); also: nearly all actives have a fitted effect of over 30% in size
Conditions: KMS27 myeloma cells, CellTiter-Glo ATP viability, 48 h; series mostly up to 45.8 µM
Source text: PI: Beverly A. Mock Ph.D. Laboratory of Cancer Biology and Genetics, Center for Cancer Research, National Cancer Institute, National Institute of Health, Bethesda, Maryland […] 5; Detector; 425V; Luminescence; Viewlux PerkinElmer. […] 1. […] Briefly, the corresponding myeloma cell lines were screened in 1,536-well plates with 500 cells, 5-uL per well for inhibition of cell viability (assessed by measuring ATP levels with CellTiterGlo). […]
Inconclusive results are not listed. Calls of active or inactive are those of the source. Calls follow the shape of the dose curve; as a rule, active = well fitted cell-killing curve with a large enough effect; inconclusive = small, poorly fitted or top-dose-only effect, or effect the other way; inactive = no such curve, though single readings can be large or run the other way.
Lab note: assign the record to one of Yes (active), No (inactive)

Could you please tell me the result logged for `CN(C)CCc1c[nH]c2ccc(C[C@H]3COC(=O)N3)cc12` in this assay?
No

Could you please tell me the result logged for `COC(c1ccccc1)(c1ccccc1)[C@H](Oc1nc(C)cc(C)n1)C(=O)O` in this assay?
No

Would you mind telling me which call this test gave `CS(=O)(=O)c1ccc([C@@H](O)[C@@H](CO)NC(=O)C(Cl)Cl)cc1` ?
No

Field: outcome | Entry: `C[C@@H]1C[C@H]2[C@@H]3CCC4=CC(=O)C=C[C@]4(C)[C@@]3(Cl)[C@@H](O)C[C@]2(C)[C@@]1(OC(=O)c1ccco1)C(=O)CCl`
Yes

Continuing:
How was `Cn1nnc2c(C(N)=O)ncn2c1=O` classified in this test?
No

// return assay outcome for `Nc1nc(N)nc(-c2cc(Cl)ccc2Cl)n1`
No

Each molecule tested received a call. Report the one for NS(=O)(=O)c1cc2c(cc1Cl)NC(C(Cl)Cl)NS2(=O)=O (configuration not stated) .
No

What call does the record list for `CCc1cc(C(N)=S)ccn1` ?
No

So what was the verdict on `N=C(N)c1ccc(OCCCCCOc2ccc(C(=N)N)cc2)cc1` in this test?
No

Hey, what did the test say about `COc1cc2nc(N3CCCN(C)CC3)nc(NC3CCN(Cc4ccccc4)CC3)c2cc1OC` ?
Yes

Tell me the recorded outcome of this test for `N[C@@H](C(=O)N[C@@H]1C(=O)N2C(C(=O)O)=C(Cl)CS[C@H]12)c1ccccc1` .
No

Any idea what this test logged for CC1CC2C3CCC4=CC(=O)C=C[C@]4(C)[C@@]3(F)[C@@H](O)C[C@]2(C)[C@@]1(O)C(=O)CO (some centres not stated) ?
No

====

assay: High-throughput drug toxicity screening in the BPDCN cell line Cal-1 (AID 1224825); conditions: Cal-1 BPDCN cell viability, qHTS; at 45.8 µM (top of the series) unless noted;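 also: cells exposed to compounds for 48 h; 100% = DMSO and 0% = bortezomib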
Measured viability (% of control) accompanies every entry in the list below.
State the answer as a number, implicitly in %.

As a guide, the following entries are already answered.
Which value of viability (% of control) has been reported for `COc1cc(NS(=O)(=O)c2ccc(N)cc2)nc(OC)n1` in the records?
104

Need viability (% of control), item `C[C@@H](CN1CC(=O)NC(=O)C1)N1CC(=O)NC(=O)C1`
14.7

Continuing:
Reported viability (% of control), compound `COc1cc2nc(N3CCCN(C)CC3)nc(NC3CCN(Cc4ccccc4)CC3)c2cc1OC` : ____
4.13

Name the recorded viability (% of control) for `C#CCN[C@@H]1CCc2ccccc21` .
57.2

Look up viability (% of control) for this compound: `CO[C@@]12[C@H](COC(N)=O)C3=C(C(=O)C(C)=C(N)C3=O)N1C[C@@H]1N[C@@H]12`
2.42

====

system: DFO2036; assay: qHTS profiling for inhibitors of Plasmodium falciparum proliferation (AID 504749); also: nearly all actives have a fitted effect of over 60% in size; conditions: P. falciparum in erythrocytes, SYBR Green DNA, 72 h; series mostly up to 28.7 µM
Records with an inconclusive call do not appear. The source made the active and inactive calls. The call rests on the fitted dose curve; in most records, active means well fitted inhibition curve with a large enough effect; inconclusive means small, poorly fitted or top-dose-only effect; inactive means flat fitted curve, though single readings scatter.
Select the correct class. Options are active, inactive and nothing else.

Observe how each entry below is paired with its result.
Record request — test call for `S=P(N1CC1)(N1CC1)N1CC1`
inactive

// return assay outcome for `CCCc1cc(C(N)=S)ccn1`
inactive

# outcome recorded in this test, key = `CC(=O)Oc1ccccc1C(=O)Nc1ncc([N+](=O)[O-])s1`
inactive

// outcome(item) with item = `CCN(C)C(=O)Oc1cccc([C@H](C)N(C)C)c1`
inactive

Please state the recorded outcome for this compound: CCC(C)(C)c1ccc(CC(C)CN2C[C@@H](C)O[C@@H](C)C2)cc1 (some centres not stated)
inactive

Which outcome did this test record for the compound `C[C@]12C=CC(=O)C=C1CC[C@@H]1[C@@H]2C(=O)C[C@@]2(C)[C@H]1CC[C@]2(O)C(=O)CO` ?
inactive

More entries:
Call for entry `NC(=O)N1c2ccccc2CC(=O)c2ccccc21` :
inactive

Could you please tell me the result logged for `COc1cc2c(Nc3ccc(Br)cc3F)ncnc2cc1OCC1CCN(C)CC1` in this assay?
active

Outcome? `CC(C)Cn1cnc2c(N)nc3ccccc3c21`
inactive

Status in this test for `COc1cnc(NS(=O)(=O)c2ccc(N)cc2)nc1` ?
inactive

What classification did `COc1ccc2cc3[n+](cc2c1OC)CCc1cc2c(cc1-3)OCO2` end up with in this test?
active

Field: outcome | Entry: `CN1CCN(c2c(F)cc3c(=O)c(C(=O)O)cn4c3c2OCN4C)CC1`
inactive

====

tested on: KB-3-1; experiment: Cytotoxic Profiling of Annotated Libraries Using Quantitative High-Throughput Screening (AID 1296008); conditions: Five cell lines viability, CellTiter-Glo ATP luminescence, 48-72 h; also: nearly all actives have a fitted effect of over 60% in size
Inconclusive results are not listed. Active and inactive are the calls of the source. The call rests on the fitted dose curve; in most records, active means well fitted inhibition curve with a large enough effect; inconclusive means small, poorly fitted or top-dose-only effect; inactive means flat fitted curve, though single readings scatter.
The reply should name one outcome from true (active), false (inactive)

Recorded results for 10 compounds are shown here.
Please share the test call associated with `CCC(=O)O[C@]1(C(=O)SCF)[C@H](C)C[C@H]2[C@@H]3C[C@H](F)C4=CC(=O)C=C[C@]4(C)[C@@]3(F)[C@@H](O)C[C@@]21C` .
false

Dear all, I need the recorded test outcome for `CCCCOc1ccc(CC(=O)NO)cc1` , thank you.
false

So what was the verdict on `COC(c1ccccc1)(c1ccccc1)[C@H](Oc1nc(C)cc(C)n1)C(=O)O` in this test?
false

Assay result, entry CNC1CCCN(c2c(F)cc3c(=O)c(C(=O)O)cn(C4CC4)c3c2OC)C1 (stereo unspecified) — outcome?
false

// param item: `NC(=O)c1cccc(N)c1` ; yields the recorded call
false

What outcome does the record of this test show for `Cc1cccc(N(C)C(=S)Oc2ccc3ccccc3c2)c1` ?
false

# outcome recorded in this test, key = `CCN(CC)CCn1c(=O)c(Cc2ccc(OC)cc2)nc2ccccc21`
false

Tell me the assay call for `COc1cc2ncnc(Nc3cccc(Cl)c3)c2cc1OC` please.
true

Name the outcome recorded for `O=C(O)c1cn(C2CC2)c2cc(N3CCNCC3)c(F)cc2c1=O` in the assay.
false

State the result this test recorded for `CNNCc1ccc(C(=O)NC(C)C)cc1` .
false

Okay, next one:
In this assay, the call recorded for `COc1cnc(NS(=O)(=O)c2ccc(N)cc2)nc1` was what?
false

====

system: MKL-2; experiment: qHTS assay to identify novel small-molecules to repurpose for Merkel cell carcinoma treatment (AID 1296009); settings: MCC and control cell lines, CellTiter-Glo viability, 72 h; series mostly up to 46 µM; also: nearly all actives have a fitted effect of over 60% in size; also: potency is read from the fitted curve at half-maximal effect
Records with an inconclusive call do not appear. Calls of active or inactive are those of the source. Calls come from the whole dose curve; as a rule, active = well fitted inhibition curve with a large enough effect; inconclusive = small, poorly fitted or top-dose-only effect; inactive = flat fitted curve, though single readings scatter.
Assay Readout: Potency

Examples with their reported Potency follow.
Name the reported Potency value associated with the compound CCN(CC)CC#CCOC(=O)C(O)(c1ccccc1)C1CCCCC1 (stereo not drawn)
inactive

If you can, please state the reported Potency value of `CCCCCCNC(=O)n1cc(F)c(=O)[nH]c1=O` .
inactive

# get_value(readout='Potency', item= `COc1ccc(-c2ccc3cc(C(=O)O)ccc3c2)cc1C12CC3CC(CC(C3)C1)C2` )
inactive

Field request: Potency | item: CC(N)C12CC3CC(CC(C3)C1)C2 (stereo not drawn)
inactive

Quick check: Potency of `COC(=O)Nc1nc2ccc(Sc3ccccc3)cc2[nH]1` ?
3.32 µM (active)

Now turn to the next compound.
Can you look up the measured Potency of `COc1cc2nc(N3CCCN(C)CC3)nc(NC3CCN(Cc4ccccc4)CC3)c2cc1OC` for me?
1.32 µM (active)

====

target: Glucocorticoid receptor (Homo sapiens) (UniProt P04150); experiment: GR-GFP Redistribution (AID 450); conditions: U2OS GR-GFP nuclear translocation, laser cytometry, 2 h; also: potency is read from the fitted curve at half-maximal effect
Sequence (P04150 whole entry, looked up): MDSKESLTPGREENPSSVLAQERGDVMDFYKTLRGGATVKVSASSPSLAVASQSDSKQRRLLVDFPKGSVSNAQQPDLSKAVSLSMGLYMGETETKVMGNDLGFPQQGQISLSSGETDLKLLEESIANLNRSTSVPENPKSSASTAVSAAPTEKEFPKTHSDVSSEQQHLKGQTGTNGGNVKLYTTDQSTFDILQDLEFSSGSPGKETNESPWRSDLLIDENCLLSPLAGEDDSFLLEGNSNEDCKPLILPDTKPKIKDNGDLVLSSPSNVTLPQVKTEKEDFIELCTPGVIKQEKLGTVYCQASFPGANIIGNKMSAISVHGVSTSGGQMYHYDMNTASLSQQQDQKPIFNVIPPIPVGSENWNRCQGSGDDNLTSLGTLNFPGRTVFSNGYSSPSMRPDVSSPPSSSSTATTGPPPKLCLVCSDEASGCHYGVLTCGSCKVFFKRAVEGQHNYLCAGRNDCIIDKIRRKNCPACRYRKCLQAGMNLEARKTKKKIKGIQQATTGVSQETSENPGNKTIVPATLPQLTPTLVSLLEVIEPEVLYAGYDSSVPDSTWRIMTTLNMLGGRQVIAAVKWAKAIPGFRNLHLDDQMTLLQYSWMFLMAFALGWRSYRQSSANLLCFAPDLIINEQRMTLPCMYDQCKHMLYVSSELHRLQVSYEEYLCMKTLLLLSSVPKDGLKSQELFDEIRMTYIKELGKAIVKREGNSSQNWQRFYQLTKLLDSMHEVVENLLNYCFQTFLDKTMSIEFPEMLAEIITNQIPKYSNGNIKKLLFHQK
Activity calls are given as the source filed them.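 Rule for the calls: active = compounds whose dose series gives a full or clear partial fitted curve of increased nuclear translocation; inconclusive = weak partial curve or effect only at the top dose; inactive = no dose-dependent translocation response.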
Can you answer with just one of these options? active, inactive

Examples with answers:
Kindly provide the recorded test outcome for the following compound: `CCC(=O)O[C@]1(C(=O)CCl)[C@@H](C)C[C@H]2[C@@H]3CCC4=CC(=O)C=C[C@]4(C)[C@@]3(F)[C@@H](O)C[C@@]21C`
active

Which result was noted for this compound in the test: `CNNCc1ccc(C(=O)NC(C)C)cc1`
inactive

Recorded call for `COc1ccc2c(c1)c(CC(=O)OCC(=O)O)c(C)n2C(=O)c1ccc(Cl)cc1` ?
inactive

What classification did `NNC(=O)c1ccncc1` end up with in this test?
inactive

Others:
Any idea what this test logged for `Cc1cccc(Nc2ccncc2S(=O)(=O)NC(=O)NC(C)C)c1` ?
inactive

Recorded test outcome, item `CC[C@H](NC(C)C)[C@H](O)c1ccc(O)c2[nH]c(=O)ccc12`
inactive

State the result this test recorded for COc1ccccc1OCC(O)COC(N)=O (configuration not stated) .
inactive
